experiment: Single dose PK in healthy subjects (Cohorts 1, 2, S1 and S2), plasma; assay type: in vivo, human; details: human, plasma, iv, 240 mg, 240 mg single IV infusion; 1.5 hr; read-out: Plasma Concentration of Cmpd A, Median
Value kind: concentration at 1.5 hr (ng/mL)
Kindly answer with a numeric value in ng/mL, unit omitted.

response.value for COC(=O)N1CCC[C@H](NS(C)(=O)=O)[C@@H]1CO[C@H]1CC[C@@H](c2ccccc2)CC1 (field: concentration at 1.5 hr) = 370

====

test: Single dose PK in healthy subjects (Cohorts 1, 2, S1 and S2), plasma; type: in vivo, human; settings: human, plasma, intravenous, 134.4 mg; 3 hr; read-out: Plasma concentration, Q3
Value kind: concentration at 3 h (ng/mL)
State the answer as a number, implicitly in ng/mL.

Recorded concentration at 3 h (compound COC(=O)N1CCC[C@H](NS(C)(=O)=O)[C@@H]1CO[C@H]1CC[C@@H](c2ccccc2)CC1 ): 305

====

assay: Single dose PK in healthy subjects (Cohorts 1, 2, S1 and S2), plasma; type: in vivo, human; conditions: human, plasma, iv, 240 mg, 240 mg single IV infusion; 2 hr; read-out: Plasma Concentration of Cmpd A, Maximum
Text: […]
Value kind: concentration at 2 h (ng/mL)
# output: bare number, implied unit ng/mL

// field: concentration at 2 h; key: COC(=O)N1CCC[C@H](NS(C)(=O)=O)[C@@H]1CO[C@H]1CC[C@@H](c2ccccc2)CC1 ; value = 482

====

assay: Single dose PK in healthy subjects (Cohorts 1, 2, S1 and S2), plasma; format: in vivo, human; conditions: human, plasma, intravenous, 180 mg; 9 hr; read-out: Plasma concentration, Q3
Value kind: concentration at 9 hr

Recorded result, COC(=O)N1CCC[C@H](NS(C)(=O)=O)[C@@H]1CO[C@H]1CC[C@@H](c2ccccc2)CC1 , concentration at 9 hr: 358 ng/mL

====

test: Plasma concentrations in healthy subjects (Cohort 4); assay type: in vivo; details: human, intravenous, 112 mg, 1 hr, Mean
Value kind: concentration at 1 h (ng/mL)
Only the number, expressed in ng/mL, is required.

COC(=O)N1CCC[C@H](NS(C)(=O)=O)[C@@H]1CO[C@H]1CC[C@@H](c2ccccc2)CC1 yielded concentration at 1 h of 162

====

assay: Single dose PK in healthy subjects (Cohorts 1, 2, S1 and S2), plasma; assay type: in vivo, human; conditions: human, plasma, intravenous, 134.4 mg; 9 hr; read-out: Plasma concentration, Minimum
Value kind: concentration at 9 h (ng/mL)
Record the value in ng/mL, omitting the unit from your answer.

Entry COC(=O)N1CCC[C@H](NS(C)(=O)=O)[C@@H]1CO[C@H]1CC[C@@H](c2ccccc2)CC1 — recorded concentration at 9 h = 241

====

assay: Multiple-dose PK of intravenous Compound A in patients with NT1 (Cohorts B1, B2), plasma; assay type: in vivo, human; conditions: human, plasma, intravenous, 11 mg; Day 7; read-out: AUCtau, Mean
Value kind: AUC (ng·h/mL)
# value in ng·h/mL; strip the unit string

Short answer for COC(=O)N1CCC[C@H](NS(C)(=O)=O)[C@@H]1CO[C@H]1CC[C@@H](c2ccccc2)CC1 : AUC was 184

====

assay: Single dose PK in healthy subjects (Cohorts 1, 2, S1 and S2), plasma; format: in vivo, human; conditions: human, plasma, iv, 180 mg, 180 mg single IV infusion, healthy subjects; read-out: CL Median (converted)
Value kind: clearance (mL/min)
Your answer should be a plain number; it is taken to be in mL/min.

For reference, reported clearance for COC(=O)N1CCC[C@H](NS(C)(=O)=O)[C@@H]1CO[C@H]1CC[C@@H](c2ccccc2)CC1 [Compound A] stands at 985
